We begin with a simple list: items and their reported relative cell viability.
# System: HL-1
# experiment_summary: relative cell viability (CellTiter-Glo) vs DMSO control (% of DMSO control); higher = more viable cells
# test_context: oxygen condition: normoxia 72 h; 1000 nM
Structures can show the parent of a compound that is named as a salt.
# respond with the number and nothing more

Illustrative cases are given below, each with its answer.
[
  {
    "compound": "NCCCCCC(=O)O",
    "assayed_target": "HL-1",
    "assay_readout": "relative cell viability",
    "value_measured": 110
  },
  {
    "compound": "CCN(CC)C(=O)C1(c2ccccc2)CC1CN (stereo not drawn) [Milnacipran HCl]",
    "assayed_target": "HL-1",
    "assay_readout": "relative cell viability",
    "value_measured": 106
  },
  {
    "compound": "COc1ccccc1OCC(O)CN1CCN(CC(=O)Nc2c(C)cccc2C)CC1 (stereo not drawn) [Ranolazine dihydrochloride]",
    "assayed_target": "HL-1",
    "assay_readout": "relative cell viability",
    "value_measured": 98.8
  },
  {
    "compound": "COc1ccc2cccc(CCNC(C)=O)c2c1",
    "assayed_target": "HL-1",
    "assay_readout": "relative cell viability",
    "value_measured": 132
  },
  {
    "compound": "CC1=C(CC(=O)O)c2cc(F)ccc2/C1=C\\c1ccc([S+](C)[O-])cc1 (stereo not drawn)",
    "assayed_target": "HL-1",
    "assay_readout": "relative cell viability",
    "value_measured": 108
  }
]

Qu. System HL-1. Read-out relative cell viability. Item CCC(NC(C)C)C(O)c1ccc(O)c(O)c1 (stereo not drawn) [Isoetharine Mesylate] . Report value.
Ans. 78.7

Qu. System HL-1. Read-out relative cell viability. Item CC1CCc2c(N3CCC(O)CC3)c(F)cc3c(=O)c(C(=O)O)cn1c23 (stereo not drawn) . Report value.
Ans. 100

Qu. System HL-1. Read-out relative cell viability. Item CC(C)(Oc1ccc(CCNC(=O)c2ccc(Cl)cc2)cc1)C(=O)O [Bezafibrate] . Report value.
Ans. 99.8
